The following compounds are shown together with reported cytotoxicity at 70.5 h values.
- Measurement Protocol: Human HepG2 cell viability assay in 384 well format
- Assay type: toxicity, cell-based
- Parameters: dose 125 nL, time 70.5 hour; concentration not given beside the values
- Condition Summary: HepG2 cells, read-out: Inhibition
Field: numeric (%). Do not append units.

The cases that follow already have their cytotoxicity at 70.5 h on record.
>  <Compound>
CC(=O)NC1CCN(c2cc(C3CCNCC3)nc(C)n2)C1 (stereo unspecified)

>  <Value Unit>
%

>  <cytotoxicity at 70.5 h>
-6.6

$$$$
>  <Compound>
Cc1ccc2nc(C)c(C)c(C(=O)N[C@H]3COC[C@@H]3N3CCCC3)c2c1

>  <Value Unit>
%

>  <cytotoxicity at 70.5 h>
-3.96

$$$$
>  <Compound>
Cc1cc(NC(=O)N(C)C2CCN(c3ccccc3F)C2=O)n(C)n1 (stereo unspecified)

>  <Value Unit>
%

>  <cytotoxicity at 70.5 h>
-0.35

$$$$
>  <Compound>
CCCc1cc(N2CCCC2Cn2cc(C)cn2)n2ncnc2n1 (stereo unspecified)

>  <Value Unit>
%

>  <cytotoxicity at 70.5 h>
-8.77

$$$$
>  <Compound>
Cc1ccc2c(ccn2CC(=O)NC[C@@H]2CCCN3CCCC[C@H]23)c1

>  <Value Unit>
%

>  <cytotoxicity at 70.5 h>
-2.59

$$$$

Now take the following compound into account.
Task item: What value of cytotoxicity at 70.5 h has been reported for the following compound? Cc1ccc(CN2CC(C(=O)Nc3ccccc3)C3(CCOCC3)C2)s1 (stereo unspecified)
Reply: -13.1

###

The following compounds are shown together with reported cytotoxicity at 70.5 h values.
- Measurement Protocol: Human HepG2 cell viability assay in 384 well format
- Format: toxicity, cell-based
- Set-up: dose 125 nL, time 70.5 hour; concentration not given beside the values
- Condition Summary: HepG2 cells, read-out: Inhibition
Field: numeric (%). Do not append units.

The cases that follow already have their cytotoxicity at 70.5 h on record.
>  <Compound>
CC(C)=CCN1C[C@H]2CC[C@@H]1CN(C(=O)c1ccc3c(c1)OCO3)C2

>  <Reported>
1.98

$$$$
>  <Compound>
O=C(c1ccsc1)N1CCc2c(CNc3ncccn3)n[nH]c2C1

>  <Reported>
3.39

$$$$
>  <Compound>
Cc1cnc(N2CCC3(CC2)CCN(c2cncnc2)C3=O)nc1

>  <Reported>
8.5

$$$$
>  <Compound>
CN(Cc1cccc(F)c1)C(=O)CS(=O)(=O)Cc1c(Cl)cccc1Cl

>  <Reported>
5.76

$$$$
>  <Compound>
Cc1cnn(CC2CCCCN2C(=O)c2ccc3c(c2)nnn3C)c1 (stereo not given)

>  <Reported>
-1.73

$$$$
>  <Compound>
CNC(=O)[C@H]1C[C@H]2OCC[C@H]2N(CC2CC2)C1

>  <Reported>
-3.14

$$$$
>  <Compound>
Cc1cc2[nH]c(CN3CCOC(C(F)(F)F)C3)cc(=O)n2n1 (stereo not given)

>  <Reported>
17.8

$$$$
>  <Compound>
Cc1nc(CC2CCCN(Cc3nc4ccccc4c(=O)[nH]3)C2)no1 (stereo not given)

>  <Reported>
-7.59

$$$$
>  <Compound>
Cc1ccc(CS(=O)(=O)N2CC[C@H]3[C@H]2CCN3C)cc1

>  <Reported>
-5.67

$$$$

Task item: What value of cytotoxicity at 70.5 h has been reported for the following compound? Cc1cccc(C(=O)N2CC(=O)N(c3ccccc3Cl)CC2C)n1 (stereo not given)
Reply: 49.8

###

- Measurement Protocol: Human HepG2 cell viability assay in 384 well format
- Assay type: toxicity, cell-based
- Set-up: dose 125 nL, time 70.5 hour; concentration not given beside the values
- Condition Summary: HepG2 cells, read-out: Inhibition
Attribute Measured: cytotoxicity at 70.5 h (%)
Field: numeric (%). Do not append units.

The cases that follow already have their cytotoxicity at 70.5 h on record.
>  <Compound>
CCOC(=O)C1(O)CCN(C(=O)Nc2cccc(CC)c2)CC1

>  <Value Unit>
%

>  <Reported>
-0.303

$$$$
>  <Compound>
CC(=O)NCC(=O)N1C[C@@H]2CC[C@H](Oc3ccccc3Cl)[C@@H]2C1

>  <Value Unit>
%

>  <Reported>
12.5

$$$$

Task item: What value of cytotoxicity at 70.5 h has been reported for the following compound? N#Cc1cccc(C(=O)N2CCc3c(COCC4CC4)cncc3C2)c1
Reply: -17.6

Task item: What value of cytotoxicity at 70.5 h has been reported for the following compound? CN(C)CCO[C@H]1CN(Cc2cccc(C#N)c2)[C@@H]2COC[C@H]12
Reply: -1.49

Task item: What value of cytotoxicity at 70.5 h has been reported for the following compound? Cc1cc(NC(=O)c2nc(N3CCCC3)ncc2Cl)ccc1Br
Reply: -5.96

Task item: What value of cytotoxicity at 70.5 h has been reported for the following compound? CCC(C)(COc1ncccc1Cl)NCC(=O)NC1CCCCC1 (stereo not drawn)
Reply: -14.9

Task item: What value of cytotoxicity at 70.5 h has been reported for the following compound? Cc1nnc(CN2CCCC2c2c(C)nn(C)c2Cl)o1 (stereo not drawn)
Reply: -11.6

Task item: What value of cytotoxicity at 70.5 h has been reported for the following compound? CCc1ncc2c(n1)CN(CC(=O)Nc1cc(C)on1)CC2
Reply: 12

Task item: What value of cytotoxicity at 70.5 h has been reported for the following compound? Cc1cc(C)cc(OCCC(=O)NC2CC(=O)N(C)C2)c1 (stereo not drawn)
Reply: -0.646

Task item: What value of cytotoxicity at 70.5 h has been reported for the following compound? Cc1cc(C)n(C2CN(CCc3ccccn3)C2)n1
Reply: -11.1

###

The following compounds are shown together with reported cytotoxicity at 70.5 h values.
- Measurement Protocol: Human HepG2 cell viability assay in 384 well format
- Assay type: toxicity, cell-based
- Parameters: dose 125 nL, time 70.5 hour; concentration not given beside the values
- Condition Summary: HepG2 cells, read-out: Inhibition
Field: numeric (%). Do not append units.

The cases that follow already have their cytotoxicity at 70.5 h on record.
>  <Compound>
COc1cccc(OC2CN(C(=O)c3cc(CC(C)C)nn3C)C2)c1

>  <cytotoxicity at 70.5 h / %>
-1.49

$$$$
>  <Compound>
N#Cc1cccc(NC(=O)N[C@H](CO)c2ccccc2)c1

>  <cytotoxicity at 70.5 h / %>
-10.8

$$$$

Task item: What value of cytotoxicity at 70.5 h has been reported for the following compound? COc1cccc(CNC(=O)N2CCN3CCNC(=O)C3C2)c1 (stereo unspecified)
Reply: -10.4

Task item: What value of cytotoxicity at 70.5 h has been reported for the following compound? CCn1c(N)nc2cc(C(=O)N3CCN(CC(F)(F)F)CC3)cnc21
Reply: -13

Task item: What value of cytotoxicity at 70.5 h has been reported for the following compound? Cc1ccsc1C(Cc1ccccc1)NC(=O)CSCC(N)=O (stereo unspecified)
Reply: -4.76

Task item: What value of cytotoxicity at 70.5 h has been reported for the following compound? O=C(C1CCOCC1)N1CC[C@H]2C[C@@H](c3ccncn3)O[C@@H]2C1
Reply: -8.58

###

- Measurement Protocol: Human HepG2 cell viability assay in 384 well format
- Assay type: toxicity, cell-based
- Parameters: dose 125 nL, time 70.5 hour; concentration not given beside the values
- Condition Summary: HepG2 cells, read-out: Inhibition
The following compounds are shown together with reported cytotoxicity at 70.5 h values.
Field: numeric (%). Do not append units.

>  <Compound>
CN1CCC(C(=O)N2CCC(=Cc3cccc(F)c3)CC2)CC1=O (stereo unspecified)

>  <cytotoxicity at 70.5 h, %>
16.2

$$$$
>  <Compound>
CC(C)n1ncc2cc(NC(=O)N3CCC(C(N)=O)C3)cnc21 (stereo unspecified)

>  <cytotoxicity at 70.5 h, %>
16.7

$$$$
>  <Compound>
NC(=O)c1ccc(CN2CCCC(N3CCCCCC3)C2)cc1 (stereo unspecified)

>  <cytotoxicity at 70.5 h, %>
1.67

$$$$
>  <Compound>
Cc1cnccc1CN(C)C(=O)c1cccc(CCC(C)(C)O)c1

>  <cytotoxicity at 70.5 h, %>
-1.91

$$$$
>  <Compound>
O=C1COC2(COCCN(c3ccccn3)C2)CN1c1cccc(F)c1 (stereo unspecified)

>  <cytotoxicity at 70.5 h, %>
-9.76

$$$$

Now take the following compound into account.
Task item: What value of cytotoxicity at 70.5 h has been reported for the following compound? Cc1noc(C)c1C(=O)N1C[C@@H]2C[C@@H](c3ccncn3)O[C@@H]2C1
Reply: -3.05

###

- Measurement Protocol: Human HepG2 cell viability assay in 384 well format
- Assay type: toxicity, cell-based
- Design: dose 125 nL, time 70.5 hour; concentration not given beside the values
- Condition Summary: HepG2 cells, read-out: Inhibition
Attribute Measured: cytotoxicity at 70.5 h (%)
Field: numeric (%). Do not append units.

The cases that follow already have their cytotoxicity at 70.5 h on record.
>  <Molecule>
COCCC(=O)NCc1ccc(-c2ccccc2C(=O)O)cn1

>  <Reported>
-6.35

$$$$
>  <Molecule>
COc1cccc(OCC2CCCN(Cc3ccncc3)C2)c1 (configuration not stated)

>  <Reported>
-10.6

$$$$
>  <Molecule>
CCOc1ncccc1NC(=O)N1CCC(n2cncn2)CC1

>  <Reported>
-8.07

$$$$
>  <Molecule>
CCN1CCCC1CNCc1cc2cc(C)c(C)cc2[nH]c1=O (configuration not stated)

>  <Reported>
-2.24

$$$$
>  <Molecule>
CC(Cn1ccnc1)NC(=O)C1(c2ccccc2)CC1 (configuration not stated)

>  <Reported>
-10.4

$$$$

Task item: What value of cytotoxicity at 70.5 h has been reported for the following molecule? O[C@@H]1C[C@@](CNCc2cccc(Cl)c2)(COc2cccnc2)C[C@@H]1O
Reply: -2.94

Task item: What value of cytotoxicity at 70.5 h has been reported for the following molecule? CC(C)COc1cncc(NCc2nnc3ccccn23)n1
Reply: -3.83

Task item: What value of cytotoxicity at 70.5 h has been reported for the following molecule? COc1ccccc1CC(=O)N1CCC(OCc2cccnc2)CC1
Reply: -13.8

Task item: What value of cytotoxicity at 70.5 h has been reported for the following molecule? COCCc1noc(CN2CCCCC2Cn2cc(C)cn2)n1 (configuration not stated)
Reply: -11.7

Task item: What value of cytotoxicity at 70.5 h has been reported for the following molecule? Cc1nnsc1C(=O)N1CCC2(CC1)c1nc[nH]c1CCN2CC(C)C
Reply: -2.79

Task item: What value of cytotoxicity at 70.5 h has been reported for the following molecule? COc1cccc(-c2noc(C3CCN(CC4CCCCC4)C3)n2)c1 (configuration not stated)
Reply: 18.2

Task item: What value of cytotoxicity at 70.5 h has been reported for the following molecule? c1c(CN2CCOCC2)nc2n1CCN(CC1CC1)C2
Reply: -3.69
